# assayed target: PI3K δ (Homo sapiens)
# Construct: purchased Upstate / Millipore Corporation
# Sequence (O00329 whole entry): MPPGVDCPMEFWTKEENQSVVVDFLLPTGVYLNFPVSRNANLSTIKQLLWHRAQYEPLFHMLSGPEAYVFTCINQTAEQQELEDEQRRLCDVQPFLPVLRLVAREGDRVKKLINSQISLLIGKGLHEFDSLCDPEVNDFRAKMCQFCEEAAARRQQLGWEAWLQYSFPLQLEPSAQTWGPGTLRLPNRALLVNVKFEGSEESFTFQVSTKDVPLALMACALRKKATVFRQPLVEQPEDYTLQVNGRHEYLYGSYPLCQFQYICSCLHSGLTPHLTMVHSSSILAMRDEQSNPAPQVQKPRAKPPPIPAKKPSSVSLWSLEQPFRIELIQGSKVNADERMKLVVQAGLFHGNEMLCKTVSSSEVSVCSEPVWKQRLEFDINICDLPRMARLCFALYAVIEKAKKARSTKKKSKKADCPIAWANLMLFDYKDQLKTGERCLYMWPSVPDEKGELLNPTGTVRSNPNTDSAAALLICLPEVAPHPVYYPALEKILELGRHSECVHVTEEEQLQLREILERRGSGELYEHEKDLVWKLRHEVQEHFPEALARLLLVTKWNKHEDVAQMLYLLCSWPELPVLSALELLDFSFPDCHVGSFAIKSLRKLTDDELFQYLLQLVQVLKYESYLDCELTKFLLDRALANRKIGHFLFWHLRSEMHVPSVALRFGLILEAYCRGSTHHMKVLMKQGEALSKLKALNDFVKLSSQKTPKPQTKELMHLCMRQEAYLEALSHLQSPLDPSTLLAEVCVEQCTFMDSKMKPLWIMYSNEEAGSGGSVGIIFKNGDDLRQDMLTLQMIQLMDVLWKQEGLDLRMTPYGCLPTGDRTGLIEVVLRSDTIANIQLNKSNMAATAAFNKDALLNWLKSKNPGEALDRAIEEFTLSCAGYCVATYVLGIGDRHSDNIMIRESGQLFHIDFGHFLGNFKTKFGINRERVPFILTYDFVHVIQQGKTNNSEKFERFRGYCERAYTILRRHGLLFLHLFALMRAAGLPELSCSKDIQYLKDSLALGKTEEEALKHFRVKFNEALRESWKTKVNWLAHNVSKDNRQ
# Sequence (P27986 whole entry partner): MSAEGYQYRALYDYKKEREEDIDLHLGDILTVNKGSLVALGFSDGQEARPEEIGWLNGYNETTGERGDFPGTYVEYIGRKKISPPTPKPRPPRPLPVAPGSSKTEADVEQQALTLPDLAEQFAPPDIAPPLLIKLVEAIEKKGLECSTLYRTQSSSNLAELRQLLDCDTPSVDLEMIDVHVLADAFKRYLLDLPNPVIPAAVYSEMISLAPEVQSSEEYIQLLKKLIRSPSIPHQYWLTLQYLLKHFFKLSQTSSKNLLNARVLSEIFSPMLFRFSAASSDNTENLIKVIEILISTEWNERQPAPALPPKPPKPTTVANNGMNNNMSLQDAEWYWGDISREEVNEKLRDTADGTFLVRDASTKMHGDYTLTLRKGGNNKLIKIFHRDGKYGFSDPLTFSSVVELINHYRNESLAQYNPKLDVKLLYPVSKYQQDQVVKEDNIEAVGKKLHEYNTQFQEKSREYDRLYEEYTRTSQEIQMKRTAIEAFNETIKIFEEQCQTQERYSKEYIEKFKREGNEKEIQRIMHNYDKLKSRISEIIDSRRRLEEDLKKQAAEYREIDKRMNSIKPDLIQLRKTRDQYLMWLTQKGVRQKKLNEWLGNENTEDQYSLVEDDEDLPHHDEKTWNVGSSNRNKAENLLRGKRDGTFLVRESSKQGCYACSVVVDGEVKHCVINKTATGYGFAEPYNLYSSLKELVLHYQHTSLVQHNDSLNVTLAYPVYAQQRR
# test summary: PI 3-Kinase (human) HTRF assay, PI3K δ
# Format: biochemical
# test settings: read-out: PI3K δ IC50
quantity measured: IC50

{"columns": ["compound", "assayed target", "IC50"],
 "data": [
  ["Nc1nc2cc(-c3ccc4ncc(N5CCN(CC6CC6)CC5)nc4c3)ccc2o1 [Compound 153]", "PI3K δ (Homo sapiens)", "< 1 µM"],
  ["Nc1nc2cc(-c3ccc4ncc(C(=O)N5CCCCC5)n4c3)ccc2o1 [Compound 196]", "PI3K δ (Homo sapiens)", "> 10 µM"],
  ["Nc1nc2cc(-c3ccc4ncc(N5CC(N6CCS(=O)(=O)CC6)C5)nc4c3)ccc2o1 [Compound 334]", "PI3K δ (Homo sapiens)", "< 10 µM"],
  ["CC(=O)N1CCC(Nc2ncnc3ccc(-c4ccc5oc(N)nc5c4)cc23)CC1 [Compound 60]", "PI3K δ (Homo sapiens)", "< 1 µM"],
  ["CN1CCN(c2cnc3ccc(-c4ccc5nc(N)oc5c4)cc3n2)CC1 [Compound 118]", "PI3K δ (Homo sapiens)", "> 10 µM"],
  ["CC1(C)COCCN1C(=O)c1cnc2ccc(-c3ccc4oc(N)nc4c3)cn12 [Compound 514]", "PI3K δ (Homo sapiens)", "> 10 µM"],
  ["Nc1nc2cc(-c3ccc4ncc(N5CC[C@H](N6CCOCC6)C5)nc4c3)ccc2o1 [Compound 375]", "PI3K δ (Homo sapiens)", "< 1 µM"],
  ["Nc1n[nH]c2cc(-c3ccc4ncc(C(=O)N5CCOCC5)n4c3)ccc12 [Compound 487]", "PI3K δ (Homo sapiens)", "> 10 µM"]
]}

Alright, here's another compound for you.
Query: Identify the measured IC50 of O=C(c1cnc2ccc(-c3cccc(S(=O)(=O)Nc4ccccc4)c3)cn12)N1CCOCC1 [Compound 440] for PI3K δ (Homo sapiens).
Reply: > 10 µM

###

Below: a set of entries, each annotated with reported pIC50.
# assayed target: PI3K β (p110β/p85α) (Homo sapiens, UniProt P42338)
# Construct: purchased Upstate / Millipore Corporation
# Sequence (P42338 whole entry): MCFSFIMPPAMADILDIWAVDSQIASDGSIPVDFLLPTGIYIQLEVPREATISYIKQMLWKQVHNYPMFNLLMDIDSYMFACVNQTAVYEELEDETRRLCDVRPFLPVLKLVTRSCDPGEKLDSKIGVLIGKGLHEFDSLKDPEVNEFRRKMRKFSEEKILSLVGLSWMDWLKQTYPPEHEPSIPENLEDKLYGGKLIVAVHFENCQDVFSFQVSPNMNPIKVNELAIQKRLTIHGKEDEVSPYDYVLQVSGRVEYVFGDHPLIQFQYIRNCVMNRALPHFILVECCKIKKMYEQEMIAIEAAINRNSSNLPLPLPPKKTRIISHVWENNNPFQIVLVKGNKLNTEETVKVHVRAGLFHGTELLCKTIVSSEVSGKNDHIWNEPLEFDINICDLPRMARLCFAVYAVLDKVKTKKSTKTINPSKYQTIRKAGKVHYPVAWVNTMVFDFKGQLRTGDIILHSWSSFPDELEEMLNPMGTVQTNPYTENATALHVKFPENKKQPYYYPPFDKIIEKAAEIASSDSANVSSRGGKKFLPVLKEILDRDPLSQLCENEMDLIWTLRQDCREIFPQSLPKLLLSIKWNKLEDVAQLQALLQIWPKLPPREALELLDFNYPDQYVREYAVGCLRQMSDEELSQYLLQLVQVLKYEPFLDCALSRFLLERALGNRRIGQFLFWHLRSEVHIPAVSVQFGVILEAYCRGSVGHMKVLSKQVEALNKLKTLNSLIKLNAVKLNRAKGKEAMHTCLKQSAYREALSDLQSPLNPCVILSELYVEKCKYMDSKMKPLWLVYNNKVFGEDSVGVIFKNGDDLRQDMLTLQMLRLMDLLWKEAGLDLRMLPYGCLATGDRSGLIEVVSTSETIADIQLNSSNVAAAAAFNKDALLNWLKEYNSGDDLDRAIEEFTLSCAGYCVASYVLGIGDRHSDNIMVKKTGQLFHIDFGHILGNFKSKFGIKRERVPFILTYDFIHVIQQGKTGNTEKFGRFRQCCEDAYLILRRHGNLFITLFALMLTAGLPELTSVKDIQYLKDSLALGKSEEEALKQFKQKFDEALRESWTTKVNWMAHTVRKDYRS
# Sequence (P27986 whole entry partner): as the sequence (P27986 whole entry partner) above
# test summary: PI 3-Kinase (human) HTRF assay, PI3K β
# Assay type: biochemical
# test settings: read-out: PI3K β IC50
pIC50: −log10 of the molar value.

{"columns": ["compound", "pIC50"],
 "data": [
  ["Nc1nc2cc(-c3ccc4ncc(C(=O)NC5CCOCC5)n4c3)ccc2o1", "> 5.00"],
  ["Cc1cc2oc(N)nc2cc1-c1ccc2ncc(C(=O)N3CCOCC3)n2c1", "< 5.00"],
  ["CN1CCN(C2CN(c3cnc4ccc(-c5ccc6oc(N)nc6c5)cc4n3)C2)CC1=O", "> 5.00"]
]}

Query: Returns the measured pIC50 for the input compound. Input: CN1CCN(C(=O)c2cnc3ccc(-c4ccc5sc(N)nc5c4)cn23)CC1
Reply: > 5.00

Query: Requested read-out: pIC50. Entry: Nc1nc2cc(-c3ccc4ncc(N5CCN(CC6CC6)CC5=O)nc4c3)ccc2o1
Reply: < 5.00

Query: I'd like to know its pIC50. The compound in question is CC1(C)CN(C2CN(c3cnc4ccc(-c5ccc6oc(N)nc6c5)cc4n3)C2)CCN1
Reply: > 6.00

Query: // query pIC50 value for entry Nc1nc2ccc(-c3ccc4nc(N)sc4c3)cc2o1
Reply: > 7.00

Query: Data request, read-out pIC50, for CN1CCN(c2nnc3ccc(-c4ccc5nc(N)oc5c4)cn23)CC1
Reply: < 5.00

Query: // lookup pIC50 for COc1ccc(-c2ccc3ncc(C(=O)N4CCOCC4)n3c2)cc1NS(=O)(=O)c1ccccc1
Reply: < 5.00

Query: Fill blank: measured pIC50 of the compound CN(C)C1CN(c2cnc3ccc(-c4ccc5oc(N)nc5c4)cc3n2)C1 is ____.
Reply: > 5.00

Query: Query (compound): CC1CN(c2cnc3ccc(-c4ccc5oc(N)nc5c4)cc3n2)CCO1 (stereo not shown) ; field requested: pIC50
Reply: > 6.00

Query: Can you share its pIC50? I mean this compound: C[C@@H]1CN(c2cnc3ccc(-c4ccc5oc(N)nc5c4)cc3n2)CCN1
Reply: > 6.00

Query: Given the compound Nc1nc2ccc(-c3ccc4ncc(N5CCOCC5)nc4c3)cc2s1 , what is its reported pIC50?
Reply: < 5.00
